Target: T1, macaca IL6R-his protein (macaca mulatta)
T1 chain: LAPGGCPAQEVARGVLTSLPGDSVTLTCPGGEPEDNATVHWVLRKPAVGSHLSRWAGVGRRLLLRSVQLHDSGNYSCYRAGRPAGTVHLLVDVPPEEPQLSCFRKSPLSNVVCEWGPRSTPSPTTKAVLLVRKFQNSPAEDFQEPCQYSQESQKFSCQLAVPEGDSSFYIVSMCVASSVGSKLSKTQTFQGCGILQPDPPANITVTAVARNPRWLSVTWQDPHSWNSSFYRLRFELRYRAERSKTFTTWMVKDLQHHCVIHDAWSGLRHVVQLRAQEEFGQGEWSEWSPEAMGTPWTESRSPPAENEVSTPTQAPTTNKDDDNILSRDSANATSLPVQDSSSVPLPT
Experiment: SPR Biacore T200; mAb captured by anti-mouse IgG on CM5, antigen in flow, 1:1 fit
readout.type: pKd
Numbers only, as −log10 of the molar value.

Worked cases, pKd given:
mouse anti-IL6R monoclonal antibody 1B5 (antibody, V domains shown, Mouse hybridoma mAb) VH: QVQLQQPGAELVKPGASVKLSCKASGYTFTSYWMHWVKQRPGQGLEWIGEINPSNGRTNYNENFKSKATLTVDKSSSTAYMQLSSLTSEDSAVYYCARLNTHYVFDYWGQGTTLTVSS VL: EIVLTQSPTILAASPGEKITFTCSVSSSISSNYLHWYQQKPGFSPKLLIYRTSNLASGVPARFSGSGSGTSYSLTIGTMEAEDVATYYCQQGSGIPFTFGSGTKLEIK
9.22
mouse anti-IL6R monoclonal antibody 1D4 (antibody, V domains shown, Mouse hybridoma mAb) VH: QVQLQQPGAELVKPGASVKLSCKASGYTFTSYWMHWVKVRPGQGLEWIGEINPTNGRTNYNEDFKSKATLTVNSSSSTAYMQLSSLTSEDSAVYYCARLNTHYVFDYWGQGTTLTVSS VL: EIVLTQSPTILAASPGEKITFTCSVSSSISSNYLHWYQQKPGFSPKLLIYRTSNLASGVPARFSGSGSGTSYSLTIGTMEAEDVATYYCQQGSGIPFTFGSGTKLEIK
9.22

Turning now to a further record.
Value lookup for pKd; key = mouse anti-IL6R monoclonal antibody 1G1 (antibody, V domains shown, Mouse hybridoma mAb) VH: QVQLQQPGAELVKPGASVKLSCKASGYTFTSYWMHWVKVRPGQGLEWIGEINPTNGRTNYNEDFKSKATLTVESSSSTAYMQFSSLTSEDSAVYYCARLNTHYVFDYWGQGTTLTVSS VL: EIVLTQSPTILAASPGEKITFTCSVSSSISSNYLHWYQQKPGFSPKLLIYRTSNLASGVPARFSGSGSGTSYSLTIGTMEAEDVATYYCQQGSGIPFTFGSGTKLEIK
9.13
